ASSAY_TARGET: Cathepsin B (Homo sapiens)
ASSAY_INFO: Inhibition of recombinant human cathepsin B using Z-Leu-Arg-AMC as substrate preincubated for 10 mins followed by substrate addition and measured after 10 mins by fluorescence spectrophotometric analysis
REPORTED_PROPERTY: IC50

Ask: Determine its reported IC50: COc1cccc2[nH]c(C(=O)N[C@@H](Cc3cccc(F)c3)C(=O)N[C@@H](CCn3nc[nH]c3=O)C(=O)COc3c(F)c(F)c(C(C)(C)O)c(F)c3F)cc12
Reply: 224 nM

====

ASSAY_INFO: Kinetic solubility of compound at pH 7.4 incubated for 24 hrs by LC-UV analysis
Format: physicochemical
TEST_CONTEXT: buffer, read-out: Kinetic_solubility
REPORTED_PROPERTY: solubility kinetic at 24 h (µM)
Provide the reading as a plain figure in µM.

Ask: Determine its reported solubility kinetic at 24 h: COc1cccc2[nH]c(C(=O)N[C@@H](Cc3cccc(F)c3)C(=O)N[C@@H](CCn3nc[nH]c3=O)C(=O)COc3c(F)c(F)c(C(C)(C)O)c(F)c3F)cc12
Reply: 5.84
